Values were extracted from paper PMC7378079.

- experimental.target: TNKS2 (tankyrase 2) ARC4 (Homo sapiens)
- Construct: ARC4 domain (ankyrin repeat cluster 4); CFP-ARC4 fusion in FRET, unlabelled ARC4 in DSF
- Sequence (Q9H2K2 484-649 limits assumed): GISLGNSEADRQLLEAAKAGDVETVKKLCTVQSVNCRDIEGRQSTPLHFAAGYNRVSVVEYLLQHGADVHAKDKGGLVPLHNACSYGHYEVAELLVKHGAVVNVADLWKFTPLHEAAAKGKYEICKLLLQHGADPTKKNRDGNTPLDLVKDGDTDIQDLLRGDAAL
- protocol.summary: FRET competition with YFP-TBM peptide (Ki calculated from IC50); DSF Tm shift […] °C at […]
- Format: binding
measured.quantity: Ki (µM)
The answer is to be given in µM; state only the numeric part.

IN: Consider the molecule shown here: O=C(O)c1cc(O)c2c(Cl)cc(Cl)cc2n1 [DCKA, 5,7-dichlorokynurenic acid] What is its recorded Ki?
OUT: 62
